Target: hPAD4 (Homo sapiens)
Experiment: hPAD4 RFMS (RapidFire mass spectrometry) PAD4 inhibition assay
Format: biochemical
Conditions: hPAD4 enzyme, RFMS readout; pIC50=−log(IC50); read-out: hPAD4 RFMS pIC50 (converted)
value.type: IC50

COCCn1c(-c2nc3cc(C(=O)N4C[C@H]5CC[C@@H]4[C@@H]5N)cc(OC)c3n2C)cc2cccnc21; < 1000 nM

Would you mind telling me what IC50 value was observed for COc1cc(C(=O)N2CC[C@@H]3CCN[C@@H]3C2)cc2nc(-c3cc4cccnc4n3CC3CC3)n(C)c12 ?
< 1000 nM

Consider the compound CCn1c(-c2cc3ccc(OC)nc3n2CC2CC2)nc2cc(C(=O)N3CCC[C@@H](N)C3)cc(OC)c21 and give its measured IC50.
< 1000 nM

Item under review: COc1ccc2cc(-c3nc4cc(C(=O)N5C[C@@H](N)C[C@H](F)C5)ccc4n3C)n(CC3CC3)c2n1 . Reported IC50?
< 1000 nM

Requested read-out: IC50. Entry: COc1cc(C(=O)N2CCC[C@@H](N)C2)cc2nc(-c3cc4cccnc4n3CCF)n(C)c12
1000 to 10000 nM

Suppose we examine the compound Cn1c(-c2cc3cccnc3n2CC2CC2)nc2cc(C(=O)N3CCCC4(CCCNC4)C3)ccc21 (stereo not shown) ; what IC50 value has been reported?
> 100000 nM

Entry under review: CCn1c(-c2nc3cc(C(=O)N4C[C@H]5CC[C@@H]4[C@@H]5N)cc(OC)c3n2[C@H]2C[C@@H](OC)C2)cc2cccnc21 . Reported IC50?
1000 to 10000 nM

====

Recorded pIC50 by entry
Target: hPAD4 (Homo sapiens, UniProt Q9UM07)
Sequence (Q9UM07 whole entry): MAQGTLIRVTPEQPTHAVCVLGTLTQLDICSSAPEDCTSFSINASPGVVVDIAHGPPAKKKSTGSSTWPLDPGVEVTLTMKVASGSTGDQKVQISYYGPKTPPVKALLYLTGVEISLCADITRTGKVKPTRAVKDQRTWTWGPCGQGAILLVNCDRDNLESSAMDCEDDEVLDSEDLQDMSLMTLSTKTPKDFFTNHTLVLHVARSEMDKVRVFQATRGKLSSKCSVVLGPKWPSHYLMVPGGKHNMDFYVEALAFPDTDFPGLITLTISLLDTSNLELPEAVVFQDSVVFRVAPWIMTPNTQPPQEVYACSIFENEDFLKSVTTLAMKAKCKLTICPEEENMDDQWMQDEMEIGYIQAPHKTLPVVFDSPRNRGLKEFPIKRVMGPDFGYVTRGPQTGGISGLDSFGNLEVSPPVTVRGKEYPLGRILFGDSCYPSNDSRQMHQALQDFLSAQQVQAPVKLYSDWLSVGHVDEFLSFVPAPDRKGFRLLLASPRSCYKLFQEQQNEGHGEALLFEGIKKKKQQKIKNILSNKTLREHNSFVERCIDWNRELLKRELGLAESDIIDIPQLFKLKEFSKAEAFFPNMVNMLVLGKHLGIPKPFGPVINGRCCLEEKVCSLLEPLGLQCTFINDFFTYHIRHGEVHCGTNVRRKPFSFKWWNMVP
Assay: hPAD4 RFMS (RapidFire mass spectrometry) PAD4 inhibition assay
Format: biochemical
Settings: hPAD4 enzyme, RFMS readout; read-out: hPAD4 RFMS IC50
pIC50: −log10 of the molar value.

Entry under review: Cn1c(-c2cc3cccnc3n2CC2CC2)nc2cc(C(=O)N3CCCC4(CCCN4)C3)ccc21 (stereo not drawn) [Compound I-41] . Reported pIC50?
< 5.00

====

Measured IC50 by item
Target: mPAD4 (Mus musculus)
Sequence (Q9Z183 whole entry): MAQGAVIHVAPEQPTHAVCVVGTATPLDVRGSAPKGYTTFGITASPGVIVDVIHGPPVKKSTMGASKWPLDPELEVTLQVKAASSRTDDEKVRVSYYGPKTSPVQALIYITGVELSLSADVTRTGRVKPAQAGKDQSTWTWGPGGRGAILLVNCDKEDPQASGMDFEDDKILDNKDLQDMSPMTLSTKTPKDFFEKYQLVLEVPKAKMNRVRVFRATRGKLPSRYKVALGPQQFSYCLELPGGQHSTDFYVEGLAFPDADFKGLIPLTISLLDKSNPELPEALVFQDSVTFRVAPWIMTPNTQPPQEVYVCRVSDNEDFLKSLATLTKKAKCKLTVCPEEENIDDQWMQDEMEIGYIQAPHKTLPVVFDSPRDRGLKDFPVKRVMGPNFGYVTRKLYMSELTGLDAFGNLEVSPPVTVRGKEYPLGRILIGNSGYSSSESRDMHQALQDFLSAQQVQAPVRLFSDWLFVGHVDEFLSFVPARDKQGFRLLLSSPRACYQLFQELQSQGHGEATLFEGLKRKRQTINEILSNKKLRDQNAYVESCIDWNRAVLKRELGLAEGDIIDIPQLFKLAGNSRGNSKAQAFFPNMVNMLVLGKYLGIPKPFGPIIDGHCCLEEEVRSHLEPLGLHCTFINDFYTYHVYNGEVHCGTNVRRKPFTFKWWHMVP
Assay: mPAD4 RFMS PAD4 inhibition assay;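 also: grade E means pIC50 at most 4 and F means pIC50 4.0 to 5.0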
Format: biochemical
Conditions: mPAD4, RFMS readout; pIC50=−log(IC50); read-out: mPAD4 RFMS pIC50 (converted)

Param item = COc1cc(C(=O)N2C[C@H]3CC[C@@H]2[C@@H]3N)cc2nc(-c3cc4cccnc4n3CC3CC3)n(CCS(C)(=O)=O)c12 [Compound I-214] ; retrieve measured IC50.
1 to 10 µM

Recorded IC50 for Cn1c(-c2cc3cccnc3n2CC2CC2)nc2cc(C(=O)N3CC[C@H]4CCN[C@H]4C3)ccc21 [Compound I-10] , please?
1 to 10 µM

Entry under review: COc1cc(C(=O)N2C[C@@H]3CC[C@H]2[C@@H](N)C3)cc2nc(-c3cc4cccnc4n3CC3CC3)n(C)c12 [Compound I-212] . Reported IC50?
10 to 100 µM

What value of IC50 has been reported for the following molecule? CCn1c(-c2nc3cc(C(=O)N4C[C@@H]5CC[C@H]4[C@H]5N)cc(OC)c3n2C)cc2ccc(OC)nc21 [Compound I-140]
10 to 100 µM

// returns reported IC50 for input COc1ccc2cc(-c3nc4cc(C(=O)N5CC[C@H](OC)[C@H](N)C5)ccc4n3C)n(CC3CC3)c2n1 [Compound I-130]
1 to 10 µM

====

pIC50 values by entry
Target: hPAD4 (Homo sapiens)
Test: hPAD4 RFMS (RapidFire mass spectrometry) PAD4 inhibition assay
Format: biochemical
Conditions: hPAD4 enzyme, RFMS readout; read-out: hPAD4 RFMS IC50
pIC50: −log10 of the molar value.

COc1cc(C(=O)N2CC3(CNCCO3)C2)cc2nc(-c3cc4cccnc4n3CC3CC3)n(C)c12; < 5.00

Could you share which pIC50 value was measured for Cn1c(-c2cc3cccnc3n2CC2CC2)nc2cc(C(=O)N3CCC(F)C(N)C3)ccc21 (stereo not shown) ?
5.00 to 5.30

Fill in the blank: the reported pIC50 of CCn1c(-c2nc3cc(C(=O)N4C[C@@H](N)CC[C@H]4C)cc(OC)c3n2C)cc2cccnc21 is ____.
> 6.00

# get_value(readout='pIC50', item= COc1cc(C(=O)N2CC[C@@H]3CCN[C@@H]3C2)cc2nc(-c3cc4cncnc4n3CC3CC3)n(C)c12 )
< 5.00

Which pIC50 value belongs to Cn1c(-c2cc3cccnc3n2CC2CC2)nc2cc(C(=O)N3CC4CCC(C3)C4N)ccc21 (stereo not shown) ?
< 5.00

Param item = COC1CCN(C(=O)c2ccc3c(c2)nc(-c2cc4cccnc4n2CC2CC2)n3C)CC1N (racemic) ; retrieve measured pIC50.
5.30 to 6.00

Entry CCn1c(-c2nc3cc(C(=O)N4CCC[C@@H](N)C4)cc(OC)c3n2C)cc2ccc(C(F)(F)F)nc21 has what pIC50?
> 6.00

If you can, please state the reported pIC50 value of COc1cc(C(=O)N2CC3CCC2[C@@H]3N)cc2nc(-c3cc4cccnc4n3CC3CC3)n(C)c12 (stereo partly shown) .
< 5.00

Would you mind telling me what pIC50 value was observed for COc1ccc2cc(-c3nc4cc(C(=O)N5C[C@H](N)C[C@@H](F)C5)cc(OC(F)F)c4n3C)n(CC3CC3)c2n1 ?
> 6.00

Data request, read-out pIC50, for COc1cc(C(=O)N2CC3(CCCNC3)C2)cc2nc(-c3cc4cccnc4n3CC3CC3)n(C)c12
5.30 to 6.00

Fill in the blank: the reported pIC50 of CCn1c(-c2nc3cc(C(=O)N4C[C@H]5CC[C@@H]4[C@@H]5N)cc(OC)c3n2CC2CCOCC2)cc2cccnc21 is ____.
> 6.00

Entry under review: COc1cc(C(=O)N2C[C@H]3CC[C@@H]2[C@@H]3N)cc2nc(-c3cc4ccc(C(F)(F)F)nc4n3CC3CC3)n(C)c12 . Reported pIC50?
> 6.00

====

Target: hPAD4 (Homo sapiens, UniProt Q9UM07)
Assay: hPAD4 RFMS (RapidFire mass spectrometry) PAD4 inhibition assay
Format: biochemical
Conditions: hPAD4 enzyme, RFMS readout; read-out: hPAD4 RFMS IC50
Reported IC50 values follow for various compounds

COc1cc(C(=O)N2CC[C@@]3(CNCCC3(F)F)C2)cc2nc(-c3cc4cccnc4n3CC3CC3)n(C)c12; > 10 µM
Cn1c(-c2cc3cccnc3n2CC2CC2)nc2cc(C(=O)N3CCC[C@@H](N)C3)cc(CO)c21; 1 to 5 µM
COCCn1c(-c2nc3cc(C(=O)N4C[C@H](N)CC[C@@H]4C)cc(OC)c3n2C)cc2cccnc21 [Compound I-195]; 5 to 10 µM

Write down the reported IC50 of CCn1c(-c2nc3cc(C(=O)N4C[C@H]5CC[C@@H]4[C@@H]5N)cc(OC)c3n2[C@H]2C[C@H](OC)C2)cc2cccnc21 , test system: hPAD4 (Homo sapiens, UniProt Q9UM07).
5 to 10 µM

====

Target: hPAD4 (Homo sapiens)
Experiment: hPAD4 RFMS (RapidFire mass spectrometry) PAD4 inhibition assay
Assay type: biochemical
Conditions: hPAD4 enzyme, RFMS readout; pIC50=−log(IC50); read-out: hPAD4 RFMS pIC50 (converted)
value.type: IC50

Completed entries (count: 3):
CCn1c(-c2nc3cc(C(=O)N4C[C@H]5CC[C@@H]4[C@@H]5N)cc(OC)c3n2CC2CCOCC2)cc2cccnc21; < 1000 nM
CCn1c(-c2nc3cc(C(=O)N4C[C@@H](N)CC[C@H]4C)cc(OC)c3n2C)cc2cccnc21; < 1000 nM
CCn1c(-c2nc3cc(C(=O)N4C[C@H]5CC[C@@H]4[C@@H]5N)ccc3n2CCOC)cc2cccnc21; 1000 to 10000 nM

Give IC50 (hPAD4 (Homo sapiens)) of the following compound: COc1ccc2cc(-c3nc4cc(C(=O)N5CC[C@@H](OC)[C@@H](N)C5)ccc4n3C)n(CC3CC3)c2n1
1000 to 10000 nM

Any idea what IC50 came out for CCn1c(-c2nc3cc(C(=O)N4C[C@H]5CC[C@@H]4[C@@H]5N)cc(OC)c3n2C[C@H]2C[C@@](C)(OC)C2)cc2cccnc21 on hPAD4 (Homo sapiens)?
< 1000 nM

What value of IC50 on hPAD4 (Homo sapiens) does COc1cc(C(=O)N2C[C@H]3CC[C@@H]2[C@@H]3N)cc2nc(-c3cc4ccc(C(C)(C)O)nc4n3CC3CC3)n(C)c12 have?
< 1000 nM

====

Target: hPAD4 (Homo sapiens)
Test: hPAD4 RFMS (RapidFire mass spectrometry) PAD4 inhibition assay
Assay type: biochemical
Conditions: hPAD4 enzyme, RFMS readout; read-out: hPAD4 RFMS IC50
Structures can show the parent of a compound that is named as a salt.
Here, each record is paired with measured IC50 data.

Worked cases, answers included:
CCn1c(-c2nc3cc(C(=O)N4C[C@H]5CC[C@@H]4[C@@H]5N)cc(OC)c3n2C)cc2cccnc21 (racemic) [Compound I-143]; < 1 µM
COc1cc(C(=O)N2CC[C@@H]3OCCN[C@@H]3C2)cc2nc(-c3cc4cccnc4n3CC3CC3)n(C)c12; 5 to 10 µM
Cn1c(-c2cc3cccnc3n2CC2CC(C)(O)C2)nc2cc(C(=O)N3CCC[C@@H](N)C3)ccc21 (some centres unmarked); 1 to 5 µM
Cc1cc2c(cc1C(=O)N1CCC[C@@H](N)C1)nc(-c1cc3cccnc3n1CC1CC1)n2C [Compound I-103, hydrochloride]; > 10 µM
COCCn1c(-c2nc3cc(C(=O)N4C[C@H]5CC[C@@H]4[C@@H]5N)ccc3n2C)cc2ccc(OC)nc21; < 1 µM
COc1cc(C(=O)N2C[C@H]3CC[C@@H]2[C@@H]3N)cc2nc(-c3cc4cnc(C)nc4n3CC3CC3)n(C)c12; < 1 µM
Cn1c(-c2cc3cccnc3n2CC2CC2)nc2cc(C(=O)N3C[C@@H](N)C[C@H](F)C3)cc(OC(F)F)c21; 1 to 5 µM
CCn1c(-c2nc3cc(C(=O)N4CCC5CCNC5C4)ccc3n2C)cc2cccnc21 (centres unmarked); 5 to 10 µM
COc1cc(C(=O)N2C[C@@H]3[C@@H](N)[C@@H]3C2)cc2nc(-c3cc4cccnc4n3CC3CC3)n(C)c12; > 10 µM
CCn1c(-c2nc3cc(C(=O)N4C[C@H]5CC[C@@H]4[C@@H]5N)cc(OC)c3n2C[C@H]2C[C@@](C)(OC)C2)cc2ccc(OC)nc21; < 1 µM

Please report the recorded IC50 for COc1cc(C(=O)N2C[C@H]3CC4OC(=O)N[C@H]3[C@@H]42)cc2nc(-c3cc4cccnc4n3CC3CC3)n(C)c12 .
> 10 µM

Which measured IC50 value corresponds to CCn1c(-c2nc3cc(C(=O)N4C[C@@H]5CC[C@H]4[C@H]5N)cc(OC)c3n2C)cc2ccc(OC)nc21 ?
5 to 10 µM

For the compound COc1cc(C(=O)N2C[C@@H](N)CC[C@H]2CO)cc2nc(-c3cc4cccnc4n3CC3CC3)n(C)c12 (single isomer, unassigned) , what IC50 is on record?
> 10 µM

If you can, please state the reported IC50 value of COc1ccc2cc(-c3nc4cc(C(=O)N5CC[C@H](OC)[C@H](N)C5)ccc4n3C)n(CC3CC3)c2n1 .
< 1 µM

Could you share which IC50 value was measured for CCn1c(-c2nc3cc(C(=O)N4CC[C@H]5CCN[C@H]5C4)ccc3n2C)cc2cccnc21 ?
> 10 µM

Suppose we examine the compound COc1ccc2cc(-c3nc4cc(C(=O)N5C[C@H](N)CC[C@@H]5C)cc(OC)c4n3C)n(CC3CC3)c2n1 ; what IC50 value has been reported?
< 1 µM

# IC50 lookup, item COc1cc(C(=O)N2CC3(CCOC[C@@H]3N)C2)cc2nc(-c3cc4cccnc4n3CC3CC3)n(C)c12
> 10 µM

For CCn1c(-c2nc3cc(C(=O)N4CC[C@@H]5CCN[C@@H]5C4)cc(OC)c3n2C)cc2cccnc21 (single isomer, unassigned) , what is its reported IC50?
1 to 5 µM

Look up IC50: COc1cc(C(=O)N2CC(N)CC(C#N)C2)cc2nc(-c3cc4cccnc4n3CC3CC3)n(C)c12 (racemic)
> 10 µM

Reported IC50 for COc1cc(C(=O)N2C[C@H]3CCC2[C@H]3N)cc2nc(-c3cc4ccc(/C=C/CCc5ccccc5)cc4n3CC3CC3)n(C)c12 : what is it?
< 1 µM

I have this compound here, CCn1c(-c2nc3cc(C(=O)N4C[C@H]5CC[C@@H]4[C@@H]5N)cc(OC)c3n2CC2CC(F)(F)C2)cc2cccnc21 , and I need its recorded IC50.
< 1 µM

What value of IC50 has been reported for the following compound? Cn1c(-c2cc3cccnc3n2CC2CC2)nc2cc(C(=O)N3CCC[C@@H]4NCC[C@@H]43)ccc21
> 10 µM

Which value of IC50 has been reported for COc1cc(C(=O)N2CCC[C@@H](N)C2)cc2nc(-c3cc4cnc(C)nc4n3CC3CC3)n(C)c12 in the records?
< 1 µM

State the recorded IC50 for this entry: Cn1c(-c2cc3cccnc3n2CC2CC2)nc2cc(C(=O)N3C[C@@H](N)C[C@H](F)C3)cc(OCC(F)F)c21
1 to 5 µM

Param item = Cn1c(-c2cc3cccnc3n2CC2CC2)nc2cc(C(=O)N3CC4CNC4C3)ccc21 (centres unmarked) ; retrieve measured IC50.
> 10 µM

Using the record for COc1cc(C(=O)N2C[C@H]3CC[C@@H]2[C@@H]3N)cc2nc(-c3cc4cccnc4n3CC3CC3)n(CC(F)F)c12 [Compound I-234] , report its IC50.
< 1 µM

Data origin, for the record: patent US9963448B2
